System: gastric acid secretion
Assay: Inhibition of gastric acid secretion (Total Acid Output) in rats; antisecretory activity
Assay type: in vivo, Female Sprague-Dawley rats
Settings: 1 h; rat; po, one hour prior to surgery; read-out: ED50 (dose required to produce an average of 50% inhibition in Total Acid Output versus controls)
A collection of molecules and their measured ED50

In the examples that follow, each entry is paired with its recorded ED50.
molecule	target system	reported metric	readout value
C(=NCCCCc1ccccc1)N1CCC(C(c2ccccc2)c2ccccc2)CC1 [R1=diphenylmethyl; A=H; R2=H; R3=drawing 19]	gastric acid secretion	ED50	8.1 mg/kg
CCCCCCCN=CN1CCC(C(c2ccccc2)c2ccccc2)CC1	gastric acid secretion	ED50	11.6 mg/kg
N=CN1CCC(c2ccccc2)CC1	gastric acid secretion	ED50	~40 mg/kg
CCCCCCCCN=CN1CCC(C(c2ccccc2)c2ccc(OC)cc2)CC1 (stereo not drawn)	gastric acid secretion	ED50	16.9 mg/kg
CCCCCCCCCCN=CN1CCC(C(c2ccccc2)c2ccccc2)CC1	gastric acid secretion	ED50	8.2 mg/kg
C#CCN=CN1CCC(C(c2ccccc2)c2ccccc2)CC1	gastric acid secretion	ED50	6.07 mg/kg
CCCCCCCCN=CN1CCC(C2c3ccccc3-c3ccccc32)CC1	gastric acid secretion	ED50	15.9 mg/kg
C=CCN=CN1CCC(C(c2ccccc2)c2ccccc2)CC1	gastric acid secretion	ED50	10.2 mg/kg
CCCCCCN=CN1CCC(C(c2ccccc2)c2ccccc2)CC1	gastric acid secretion	ED50	8.7 mg/kg
C(=NCCc1ccccc1)N1CCC(C(c2ccccc2)c2ccccc2)CC1	gastric acid secretion	ED50	3.7 mg/kg

ED50 on gastric acid secretion for `CC(C)N=CN1CCC(C(c2ccccc2)c2ccccc2)CC1` is 9.8 mg/kg

Let me check: `Clc1ccc(CN=CN2CCC(C(c3ccccc3)c3ccccc3)CC2)cc1` , system gastric acid secretion, measured ED50 is 20.7 mg/kg
